B1: ZNF232 (parent)
chain: FPKSEQVYLHFLSVVTEDGPEPKD

- Variants of: B1
- Experimental details: protein stability index of a GFP-peptide fusion (GPS, HEK-293T) (PSI 1-6); higher = more stable;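 also: lentivirally expressed fusions sorted by FACS into six bins by GFP to DsRed ratio, PSI derived from sequencing read proportions per bin multiplied by bin number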
- Test context: c terminus: a fixed tail appended
Form field: protein stability index (one value per entry).
No unit in the answer, please; the number alone is enough.

The following variants have reported results that may help.
> print(dat)
   mutation.code                  readout  recorded.result
1            P2A  protein stability index             1.91
2           D24T  protein stability index             1.75
3           P22G  protein stability index             1.75
4           P20T  protein stability index             2.72
5           D18M  protein stability index             1.01

The variant `L9F` showed protein stability index equal to 1.73

Measured protein stability index of `F1Q` : 4.75

Consider `G19T` . Its measured protein stability index is 2.34

Sample `V14Q` ; protein stability index observed: 2.82

Short answer for `K3N` : protein stability index was 2.71

Documented protein stability index of `T16N` : 2.42
